test system: SNB-75; experiment: NCI tumour cell line growth inhibition, 48 h
Activity calls are given as the source filed them. Cut-off read from the data, not from the text of the source: active = GI50 up to about 1.1 µM and inactive = higher.
Overview of recorded GI50 for various molecules

In the examples that follow, each entry is paired with its recorded GI50.
CCN(CC)C(=S)SC(=S)N(CC)CC = 31.3 µM (inactive)
C[C@H]1C(=O)C2=C[C@H]1CCC(=O)[C@]1(C)CCCC(C)(C)[C@H]1C[C@H]2O = 16.7 µM (inactive)
O=C1CCCN(c2ccccc2)N1 = > 100 µM (inactive)

Sample N[C@@H](Cc1ccccc1)C(=O)N1CCC[C@@H]1P(=O)(Oc1ccccc1)Oc1ccccc1 — what was its GI50?
> 100 µM (inactive)

Sample Nc1c(-c2nc3ccccc3s2)c2ccc([N+](=O)[O-])cc2c(=O)n1-c1cccc(C(=O)O)c1 — what was its GI50?
30.8 µM (inactive)

====

Overview of recorded GI50 for various molecules
test system: HT-29; assay: NCI tumour cell line growth inhibition, 48 h
Calls of active or inactive are those of the source. Rule as the data show it: active = GI50 up to about 1.1 µM and inactive = higher.

CN(C)CCCN1c2ccccc2Sc2cnccc21 = 58.6 µM (inactive)
O=C(Cn1ccnc1[N+](=O)[O-])NCCO = > 100 µM (inactive)
CC(/C=C/C=C/C=C/C=C/C=C/C(=O)C1=C(O)C(CCC(=O)O)N(C)C1=O)=C\C(C)C(OC1CC(O)C(O)C(C)O1)C(C)C (configuration not stated) = 3.02 µM (inactive)
CCOC(=O)c1ccc(NC(=O)SCCC(=O)O)cc1 = 52.5 µM (inactive)
O=S1(=O)C(c2ccccc2)=C(O)c2ccccc21 = > 100 µM (inactive)

Checklist item: GI50 tested on HT-29, entry Cc1cc(C)nc(SC(C)C(=O)N/N=C/c2ccc(OCc3ccccc3)cc2)n1 (configuration not stated) , value?
14.5 µM (inactive)

Checklist item: GI50 tested on HT-29, entry COc1ccc([C@@H]2C[C@@H]3C(=O)OC(=O)[C@@H]3c3c2c2ccccc2n3C)cc1 , value?
> 100 µM (inactive)

Checklist item: GI50 tested on HT-29, entry Nc1ncn2c(n1)nc1ccccc12 , value?
> 100 µM (inactive)

====

Overview of recorded GI50 for various molecules
tested on: SF-539; test: NCI tumour cell line growth inhibition, 48 h
Active and inactive are the calls of the source. No stated cut-off is given here; in the data, active = GI50 up to about 1.1 µM and inactive = higher.

FC(F)(F)C1(C(F)(F)F)OC(Cl)(Cl)C(Cl)(Cl)O1 = > 10 µM (inactive)
Cc1ccc(S(=O)(=O)OC2CC(C(C)(C)C)CCC2c2ccccc2)cc1 (stereo unspecified) = > 100 µM (inactive)
CC(=O)NCCC1CNc2ccccc21 (stereo unspecified) = > 100 µM (inactive)
Cc1cc(N(CCC#N)CCC#N)ccc1/C=C1/N=C(c2ccccc2)N(N)C1=O = 60.8 µM (inactive)
CCCCCCCCCCNC(=S)OC = 64.7 µM (inactive)

Sample COc1ccc(-c2cc(-c3ccc(O)cc3O)c(C#N)c(=O)[nH]2)cc1 — what was its GI50?
17.6 µM (inactive)

====

system: HOP-62; assay: NCI tumour cell line growth inhibition, 48 h
The source made the active and inactive calls. No stated cut-off is given here; in the data, active = GI50 up to about 1.1 µM and inactive = higher.
Overview of recorded GI50 for various compounds

In the examples that follow, each entry is paired with its recorded GI50.
CC[N+]1(C)CCC(O)(c2ccc(OC)cc2)C(C(=O)c2ccc(OC)cc2)C1 (stereo unspecified) = 18.9 µM (inactive)
COc1ccc(-c2onc(-c3ccc([N+](=O)[O-])cc3)c2C2=NCCCN2)cc1 = > 100 µM (inactive)
CCCCc1c2c(nc3c1CCCC3=O)C(=O)CCC2 = > 100 µM (inactive)
CC1=C(c2cc(C(=O)Nc3ccc(Cl)cc3)nc(S)n2)Sc2ccccc2N1 = > 100 µM (inactive)
CN1C(=O)C(=O)c2cc3c(c4c2c1cc1ccccc14)OCO3 = 41.2 µM (inactive)
O=C(CC(C(=O)O)N1CCOCC1)c1ccccc1 (stereo unspecified) = 27.4 µM (inactive)

Sample Cc1ccc2c(ccc3[nH]cc(CNc4ccc(NS(C)(=O)=O)cc4)c32)n1 — what was its GI50?
24.2 µM (inactive)

Sample CCOC(=O)/C(C(=O)c1ccc[nH]1)=C1/CCCN1C — what was its GI50?
> 100 µM (inactive)

Sample O=C1Cc2c([nH]c3c(Cl)cccc23)-c2ccccc2N1 — what was its GI50?
> 100 µM (inactive)

Sample Cc1cn(CC2=NCCCN2)c(=O)[nH]c1=O — what was its GI50?
> 100 µM (inactive)

Sample CCN(CC)C(=S)SC(=S)N(CC)CC — what was its GI50?
53.7 µM (inactive)
